Task for the reader: assign each of the following variants its reported protein stability index.
B1: INTS3 (parent)
chain: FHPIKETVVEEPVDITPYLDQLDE

variants of: B1; test: protein stability index of a GFP-peptide fusion (GPS, HEK-293T) (PSI 1-6); higher = more stable; details: c terminus: a fixed tail appended;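 note: lentivirally expressed fusions sorted by FACS into six bins by GFP to DsRed ratio, PSI derived from sequencing read proportions per bin multiplied by bin number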
Answers are plain numbers.

Here are 2 variants together with their reported answers.
L22A : 3.9
K5R : 3.9

Here is another variant to look at.
(Q) What value of measured protein stability index is listed for V8D ?
(A) 3.9
